The measurements presented in this section are drawn from ChEMBL document CHEMBL5058577.

# Tested on: Fibroblast
# assay-details: Multiplex assay against human fibroblast
# Assay type: toxicity, cell-based
# test-settings: 24 h, 1 µM, compound concentration 1 uM, replicate 2
Overview of recorded Population Normal (%) for various compounds
// note: answer is a bare numeric in %

INSERT INTO results (compound, measured_on, attribute_measured, result) VALUES
  ('O=C1[C@H](Cc2ccc(O)cc2)N2C(=O)CCN(C(=O)NCc3ccccc3)[C@H]2CN1Cc1cccc2ccccc12', 'Fibroblast', 'Population Normal (%)', 97),
  ('CCCCC(=O)N(Cc1ccc(-c2ccccc2-c2nnn[nH]2)cc1)[C@H](C(=O)O)C(C)C', 'Fibroblast', 'Population Normal (%)', 97),
  ('O=C(NCCN1CCC(n2c(=O)[nH]c3cc(Cl)ccc32)CC1)c1ccc(F)cc1 [HALOPEMIDE]', 'Fibroblast', 'Population Normal (%)', 90);

// returns reported Population Normal (%) for input `CN[C@@H](C)C(=O)N[C@H](C(=O)N1CCC[C@H]1C(=O)Nc1snnc1-c1ccccc1)C1CCCCC1`
90

Quick one: `COc1ccccc1N1CCN(C[C@@H](C(=O)NC(C)(C)C)c2ccccc2)CC1.Cl.Cl`
96

====

# Tested on: U2OS
# assay-details: Multiplex assay against U2OS
# Assay type: toxicity, cell-based
# test-settings: human, 48 h, 10 µM, compound concentration 10 uM, replicate 2
attribute-measured: Population Tubulin-Different-Phenotype (%)
Respond numerically; units are % and should not be typed.

Worked cases, answers included:
INSERT INTO assay_data (compound, result) VALUES
  ('CCCCCC(O)/C=C/[C@H]1C(=O)CC(O)C1C/C=C\CCCC(=O)O (stereo partly drawn)', 3),
  ('CCCCC(=O)N(Cc1ccc(-c2ccccc2-c2nnn[nH]2)cc1)[C@H](C(=O)O)C(C)C', 6);

Please give the measured Population Tubulin-Different-Phenotype (%) for this compound: `CC[C@@H](C)Nc1nc(C)nc2c(-c3ccc(OC)nc3C)c(C)nn12`
2

====

# Test system: HEK-293T
# assay-details: Multiplex assay against HEK293T
# Assay type: toxicity, cell-based
# test-settings: human, 48 h, 1 µM, compound concentration 1 uM, replicate 1
attribute-measured: Population Pyknosed Nuclei (%)
Answer format: number, then unit.

# Population Pyknosed Nuclei (%) lookup, item `N#Cc1c(Oc2cccc(OS(=O)(=O)CCCC(F)(F)F)c2)cccc1C(F)(F)F`
5%

Could you do the same for Cc1c(CC(=O)O)c2cccnc2n1Cc1ccc(S(C)(=O)=O)cc1C(F)(F)F [FEVIPIPRANT] , please?
7%

And what about the molecule `COc1ccccc1N1CCN(C[C@@H](C(=O)NC(C)(C)C)c2ccccc2)CC1.Cl.Cl` ?
8%

Next entry: CCCCC1=NC2(CCCC2)C(=O)N1Cc1ccc(-c2ccccc2-c2nnn[nH]2)cc1 [IRBESARTAN]
7%

Same question, Cl.NCCc1ccc(O)c(O)c1 [DOPAMINE HYDROCHLORIDE] this time
7%

How about this molecule: `COc1cccc2c1c(NS(=O)(=O)c1ccc(Cl)s1)nn2Cc1cccc(CNC(=O)C(C)(C)O)c1`
6%

Next record, please: CC[C@@H](C)Nc1nc(C)nc2c(-c3ccc(OC)nc3C)c(C)nn12 [PEXACERFONT]
7%

What would you report for `Cc1noc(-c2ccc(-c3ccc(CC(=O)O)cc3)cc2)c1NC(=O)O[C@H](C)c1ccccc1Cl` ?
5%

Param item: `CN1CCN(c2cc(-c3ccccc3)nc(N)n2)CC1`
7%

Next: CN[C@@H](C)C(=O)N[C@H](C(=O)N1CCC[C@H]1C(=O)Nc1snnc1-c1ccccc1)C1CCCCC1 [GDC-0152]
9%

Follow-up item: `Cc1cnc(-c2cc(N3CCN(C(=O)CCS(C)(=O)=O)CC3)ncc2Cl)c(C)c1`
6%

Follow-up entry: `CCCCC(=O)N(Cc1ccc(-c2ccccc2-c2nnn[nH]2)cc1)[C@H](C(=O)O)C(C)C`
5%
